- System: P. falciparum stage V gametocytes
- Set-up: BacTiter-Glo ATP luminescence viability of purified stage V gametocytes in 384-well plates, per cent inhibition versus DMSO
- CONDITIONS: 48 h, 5 µM; inhibitor
Out of some 13,000 compounds screened, about 3,200 (25%) showed an effect of 50% or more. This is one part of the list.
QUANTITY KIND: % Inhibition
Give me the value, and tack the unit on after it.

[Q] Name the recorded % Inhibition for N=C(N)c1ccc(Nc2nccc(Nc3nc(-c4ccccc4)cs3)n2)cc1 [TCMDC-136090] .
[A] -20.73%

[Q] Name the recorded % Inhibition for OC(c1ccccc1)C1CN(CCC2CC3CCC2C3)CCC1(O)c1ccccc1 (centres unmarked) [TCMDC-131996] .
[A] -67.18%

[Q] Name the recorded % Inhibition for O=C(/C=C/c1ccc(Cl)c(Cl)c1)NCCCCCCN1CCN(C(=O)Nc2cc(Cl)nc(Cl)c2)CC1 [TCMDC-135891] .
[A] -18.09%

[Q] Name the recorded % Inhibition for CN(C)C(=O)CCCn1c(CNCCCNc2cc(=O)c3ccccc3[nH]2)cc2c(Cl)cc(Cl)cc21 [TCMDC-140466] .
[A] -27.37%

[Q] Name the recorded % Inhibition for NC1=NC(c2ccccc2)(c2ccccn2)C(=O)N1CCCc1ccccc1 (centres unmarked) [TCMDC-136603] .
[A] 9.29%

[Q] Name the recorded % Inhibition for CCN(CC)CCNC(=O)c1ccc(NC(=O)c2cc(-c3ccncc3)nc3ccccc23)cc1 [TCMDC-124495] .
[A] 0.6549%

[Q] Name the recorded % Inhibition for CC(=O)Nc1ccc(C(=O)NC2CCN(c3ccnc4cc(Cl)ccc34)C2)cc1 (centres unmarked) [TCMDC-133650] .
[A] -2.707%

[Q] Name the recorded % Inhibition for COc1ccc(Cl)cc1NC(=O)Nc1ccnc2ccccc12 [TCMDC-139457] .
[A] 13.69%
